Cited source for all entries: patent US9394297B2

assaySystem: Pim-2 (Homo sapiens (Human))
Sequence (Q9P1W9 whole entry): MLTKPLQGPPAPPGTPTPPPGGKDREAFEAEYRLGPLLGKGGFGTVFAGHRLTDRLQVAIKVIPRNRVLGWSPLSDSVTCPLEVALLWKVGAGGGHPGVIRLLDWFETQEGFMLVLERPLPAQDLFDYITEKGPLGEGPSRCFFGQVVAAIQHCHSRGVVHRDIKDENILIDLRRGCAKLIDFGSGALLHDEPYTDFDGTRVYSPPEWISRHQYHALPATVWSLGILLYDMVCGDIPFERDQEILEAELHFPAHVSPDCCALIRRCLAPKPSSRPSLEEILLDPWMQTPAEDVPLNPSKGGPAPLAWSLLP
testMethodNotes: Pim-Mn enzyme assay (HTRF, 384-well), Pim-2
Assay type: biochemical
conditionsUsed: Pim-2 enzyme 0.5 pM, ATP 1.5 μM, BAD (S112) 0.5 μM, HTRF, 22-point curve; read-out: Pim-2-Mn IC50 IP
metricName: pIC50
Please report pIC50 as the negative decimal logarithm of the molar concentration, giving only the number.

Example cases with answers are listed next.
Cc1nc2ccc(F)c(-c3cc4c([nH]3)C3(CC3)NC4=O)c2nc1NC(C)C [Example 330]	8.93
Cc1nc2cccc(-c3cc4c([nH]3)CCNC4=O)c2nc1N[C@H]1C[C@@H](NCCS(C)(=O)=O)C1 [Example 441]	8.89
CC(=O)N1CCC[C@@H](Nc2nc3c(-c4cc5c([nH]4)CCNC5=O)cccc3nc2C)C1 [Example 241]	7.16
Cc1nc2cccc(-c3cc4c([nH]3)CCNC4=O)c2nc1NC(C)c1ccccn1 (centres unmarked) [Example 321]	6.81

pIC50 for Pim-2 (Homo sapiens (Human)) with input Cc1nc2cccc(-c3cc4c([nH]3)CCNC4=O)c2nc1N[C@@H](C)C(F)(F)F [Example 255] equals 7.57

pIC50 for Pim-2 (Homo sapiens (Human)) with input Cc1nc2cccc(-c3cc4c([nH]3)CCNC4=O)c2nc1NC1(C)CCC1 [Example 144] equals 9.22

pIC50 for Pim-2 (Homo sapiens (Human)) with input Cc1nc2cccc(-c3cc4n(c3)CCNC4=O)c2nc1NC1(C)CC1 [Example 100, 2,2,2-trifluoroacetate] equals 9.02

pIC50 for Pim-2 (Homo sapiens (Human)) with input CCOc1cnc2cccc(-c3cc4c([nH]3)CCNC4=O)c2n1 [Example 337] equals 7.26
